# System: Saccharomyces cerevisiae
# TEST_NAME: protein stability index of tFT-peptide fusion (C-terminal peptide) (PSI (0-1 scale)); higher = more stable (slower turnover)
# CONDITION_DETAILS: genetic background: wild type; temperature: 30 C
MEASURED_QUANTITY: protein stability index
Please give the numeric answer without any surrounding text.

Some solved cases for reference:
BIOSEQUENCE	protein stability index
KDIVSQEEHAPL	0.678
FFCSILLGIILL	0.399
VALLKCTGTAQI	0.61
SGAGVGGQVAVG	0.717
PIPTQYPPPKAP	0.675
VGSPPVWAAVWG	0.614
HCSLRPRPNHAR	0.746
RLSGHLRLGRLG	0.672
VFPPTPPTVPRG	0.727
EWGKCGRGLYGC	0.666

Shifting focus to the sequence that follows.
Endpoint output: protein stability index of "GGWRRDGSLCGA" . Value?
0.733

----------
# Test system: Saccharomyces cerevisiae
# TEST_NAME: protein stability index of tFT-peptide fusion (C-terminal peptide) (PSI (0-1 scale)); higher = more stable (slower turnover)
# CONDITION_DETAILS: genetic background: doa10 deletion; temperature: 30 C
MEASURED_QUANTITY: protein stability index
I only need the number, thanks.

BIOSEQUENCE	protein stability index
PVTAVYFVLYIW	0.143
CILVSVDVIVFF	0.103
EMSIISVLRVIS	0.181
GGFRVLLWCVVW	0.184
GKHILLISLNIT	0.246
RGPSQVIVAFFV	0.319
FFCCFVFVLGFC	0.283
IIFWMWVIIRVY	0.114

Endpoint output: protein stability index of "KKKQAILRTLKI" . Value?
0.177

Query (sequence): "VGASLVVIAIGV" ; field requested: protein stability index
0.344

Data request, read-out protein stability index, for "PLYFSVFSLLFL"
0.478

Which protein stability index value belongs to "MFRSEVSWKLCC" ?
0.134

Name the recorded protein stability index for "RLFYRLSFVYFL" .
0.169

----------
# Tested on: Saccharomyces cerevisiae
# TEST_NAME: protein stability index of tFT-peptide fusion (C-terminal peptide) (PSI (0-1 scale)); higher = more stable (slower turnover)
# CONDITION_DETAILS: genetic background: wild type; temperature: 30 C
MEASURED_QUANTITY: protein stability index
Number only, please.

Worked cases, protein stability index given:
BIOSEQUENCE	SYSTEM_UNDER_TEST	MEASURED_QUANTITY	MEASUREMENT
RWRRWCVVLFVV	Saccharomyces cerevisiae	protein stability index	0.0689
CPYSNAFALCVF	Saccharomyces cerevisiae	protein stability index	0.192
TLCHLTLICVRE	Saccharomyces cerevisiae	protein stability index	0.21

Now consider a different sequence.
Reported protein stability index for "LVCSLLVPSSFF" : what is it?
0.645

----------
# Tested on: Saccharomyces cerevisiae
# TEST_NAME: protein stability index of tFT-peptide fusion (C-terminal peptide) (PSI (0-1 scale)); higher = more stable (slower turnover)
# CONDITION_DETAILS: genetic background: wild type; temperature: 30 C
Parameter: protein stability index. Scope: all listed entries.

In the examples that follow, each entry is paired with its recorded protein stability index.
BIOSEQUENCE	protein stability index
VGYGTGGAVGVE	0.691
SCLYPGLCLSYF	0.674
CVFLGRMSFLAF	0.602
KKKKKKGKGAKT	0.617
PVDDFVCLEVDS	0.688
VKTSRASLSGKL	0.805
GPLEGGDGRWVG	0.685
PLRSPSYPPPPP	0.681
SLSEEWAHIGGL	0.643
CSAVYNLHLLYS	0.519

# input sequence: "LFLVWSLGSGRN" ; wanted: its protein stability index
0.672

Report protein stability index for "IKKKKNKKENAE" please.
0.725

What value of protein stability index has been reported for the following sequence? "GRRERSGKGKER"
0.804

Name the reported protein stability index value associated with the sequence "NGSGVSEDRDEK"
0.63

State the recorded protein stability index for this entry: "RGSLLRWFLAAQ"
0.443

Quick one: protein stability index of "WGACSALRRLGY" ?
0.684

Query: protein stability index; subject: "IYGCISVYYSSG"
0.562

What measured protein stability index goes with "RVGGRVSGGGGL" ?
0.654

If you can, please state the reported protein stability index value of "LRIGVEAGRAHR" .
0.648

Would you kindly share the measured protein stability index for "PSSTSPQPRLCF" ?
0.686

Can you look up the measured protein stability index of "FVEFCFWCFWVV" for me?
0.426

Endpoint output: protein stability index of "GPPAGGTARSPM" . Value?
0.694

What does the data say about its protein stability index? Entry: "LGSNLVCFLCVS"
0.566

Consider the sequence shown here: "TRRLEFPEPPMS" What is its recorded protein stability index?
0.708

Given the sequence "RKEETINKESRR" , what is its reported protein stability index?
0.742

Requested read-out: protein stability index. Entry: "LSTPASVLLSSG"
0.682

Field request: protein stability index | item: "EGGARGCGEGSQ"
0.656

For the sequence shown here, "RLTDPHWALIQS" , give the reported protein stability index.
0.839

Using the record for "CDGGCSWGGLMG" , report its protein stability index.
0.795

----------
// protein stability index lookup, one value per entry
# System: Saccharomyces cerevisiae
# TEST_NAME: protein stability index of tFT-peptide fusion (C-terminal peptide) (PSI (0-1 scale)); higher = more stable (slower turnover)
# CONDITION_DETAILS: genetic background: wild type; temperature: 30 C
Lab note: jot down the number only; don't add units.

BIOSEQUENCE	MEASUREMENT
VGWGECPKVECV	0.599

// lookup protein stability index for "TMLIGTAQAVNN"
0.604

Name the reported protein stability index value associated with the sequence "RLEERTNIKKIK"
0.699

Can you look up the measured protein stability index of "KETNIKKRRARG" for me?
0.646

Consider the sequence shown here: "PSVPSAAPPSSA" What is its recorded protein stability index?
0.703

Reported protein stability index, sequence "PPFASSPPFIFL" : ____
0.705

----------
# Test system: Saccharomyces cerevisiae
# TEST_NAME: protein stability index of tFT-peptide fusion (C-terminal peptide) (PSI (0-1 scale)); higher = more stable (slower turnover)
# CONDITION_DETAILS: genetic background: wild type; temperature: 30 C
Reported values of protein stability index for individual entries
// return just the number, without any unit appended

BIOSEQUENCE	protein stability index
PPRPAPTSFKRG	0.718

# query: protein stability index of entry "AGVLTRGNCCGG"
0.688

Look at this sequence and give its reported protein stability index. "LHRTKHLRKGHK"
0.691

Quick one: protein stability index for "PRRVTVPGVPPL" ?
0.71

So what's the measured protein stability index for this one? "SRKTDTRLTMIN"
0.692

Quick check: protein stability index of "PTSQRPFFLISP" ?
0.704

----------
Reported protein stability index values follow for various sequences
# Tested on: Saccharomyces cerevisiae
# TEST_NAME: protein stability index of tFT-peptide fusion (C-terminal peptide) (PSI (0-1 scale)); higher = more stable (slower turnover)
# CONDITION_DETAILS: genetic background: wild type; temperature: 30 C
I'd appreciate a reply containing only the number, no unit.

Here is how some sequences turned out for protein stability index.
BIOSEQUENCE	MEASUREMENT
DAFEKAIEAVYA [ARG8 C-terminal 12 aa]	0.558
HLCWLRCACDGP [YLR154C-G C-terminal 12 aa]	0.699
MDDEFVSGRFEI [SCH9 C-terminal 12 aa]	0.703
TISRLPPRSWTN [YCL042W C-terminal 12 aa]	0.739
PADIDKYIIQRK [FMP46 C-terminal 12 aa]	0.672
LSVKWAVNTLMS [SRP101 C-terminal 12 aa]	0.568
GAMSEGKTGQLN [YLR036C C-terminal 12 aa]	0.699
DGFSVPITTFQT [CDC15 C-terminal 12 aa]	0.709

Tell me reported protein stability index for TQLVQKALERFK [RIC1 C-terminal 12 aa] , tested with Saccharomyces cerevisiae.
0.676

----------
# Tested on: Saccharomyces cerevisiae
# TEST_NAME: protein stability index of tFT-peptide fusion (C-terminal peptide) (PSI (0-1 scale)); higher = more stable (slower turnover)
# CONDITION_DETAILS: genetic background: wild type; temperature: 30 C
MEASURED_QUANTITY: protein stability index
I only need the number, thanks.

BIOSEQUENCE	SYSTEM_UNDER_TEST	MEASUREMENT
FGFFDIKLPVVA	Saccharomyces cerevisiae	0.373
FLSVLPLFAFFA	Saccharomyces cerevisiae	0.258
GFISKLIIKLAA	Saccharomyces cerevisiae	0.319
PRPSPPLPPPSS	Saccharomyces cerevisiae	0.677
SPGGALVFFVLV	Saccharomyces cerevisiae	0.431

# query: protein stability index of entry "FSALAPTPLLPL"
0.671

So what does the record say about protein stability index for "FLFLFLFPFSLI" ?
0.386

Please give the measured protein stability index for this sequence: "VFYWGGVLCGWG"
0.326

# protein stability index lookup, item "WLGCVLIGWHVL"
0.19

Quick check: protein stability index of "DVYIVLFIIKHG" ?
0.175

Query: protein stability index; subject: "FLLFFVLRLLPC"
0.231
